Exercise: state measured EC50 for each of the molecules provided.
- Test system: THP1-Dual cells
- EXPERIMENT SUMMARY: THP1-Dual assay (Lucia reporter)
- Type: cell-based
- CONDITION NOTES: Homo sapiens, 384 well, 16-24 hours, normalized to 2'3'-cGAMP at 50 uM
Provide the reading as a plain figure in nM.

Q: Requested field: EC50. Item: Nc1ncnc2c1ncn2C1OC2COP(=O)(S)OC3C(COP(=O)(S)OC2C1F)OC(n1cnc2c(N)ncnc21)C3F (stereo not drawn)
A: 462

Q: # EC50 lookup, item Nc1ncnc2c1ncn2[C@@H]1O[C@@H]2CO[P@@](=O)(S)O[C@@H]3[C@H](O)[C@@H](CO[P@@](=O)(S)O[C@H]2[C@H]1F)O[C@H]3n1cnc2c(N)ncnc21
A: 1990
